Test: 7-day repeated-dose PK in rats
Format: in vivo, Sprague Dawley rats
Settings: male, Sprague Dawley, rat, plasma, po, 100 mg/kg/day, day 7, PO 100 mg/kg/day, M

# compound, Cmax [ng/mL]
records = [
    ("C[C@]12CC[C@@H]3c4ccc(B(O)O)cc4C[C@@H](CCCCCCCCC[S+]([O-])CCCC(F)(F)C(F)(F)F)[C@H]3[C@@H]1CC[C@@H]2O (stereo partly shown) [ZB716, fulvestrant-3-boronic acid]", 1610),
]

====

Assay: 4-week repeat-dose toxicity/TK study in rats
Format: in vivo, Sprague Dawley rats
Settings: female, Sprague Dawley (Crl: CD (SD)), rat, plasma, po, 25 mg/kg/day, day 28, PO 25 mg/kg/day, Female
quantity: AUC(0-t) (ng·h/mL)

# compound, unit abbrev, result value
rows = [
    ("C[C@]12CC[C@@H]3c4ccc(B(O)O)cc4C[C@@H](CCCCCCCCC[S+]([O-])CCCC(F)(F)C(F)(F)F)[C@H]3[C@@H]1CC[C@@H]2O (stereo partly shown)", "ng·h/mL", 8040),
]

====

Tested on: CYP2B6
Experiment: CYP induction (enzyme activity) in cryopreserved human hepatocytes, CYP2B6
Conditions: human, plated cryopreserved human hepatocytes, Fold Induction, donor one, 0.15 µM

# molecule, fold induction at 72 h, 0.15 µM
records = [
    ("C[C@]12CC[C@@H]3c4ccc(B(O)O)cc4C[C@@H](CCCCCCCCC[S+]([O-])CCCC(F)(F)C(F)(F)F)[C@H]3[C@@H]1CC[C@@H]2O (stereo partly shown)", 1.1),
]

====

Tested on: CYP1A2
Test: CYP induction (enzyme activity) in cryopreserved human hepatocytes, CYP1A2
Details: human, plated cryopreserved human hepatocytes, Fold Induction, donor one, 30 µM

# compound, fold induction at 72 h, 30 µM
data = [
    ("CCOC(=O)c1ncn2c1CN(C)C(=O)c1cc(F)ccc1-2 [Flumazenil, flumazenil, reference compound]", 0.818),
]

====

Assay: Single-dose PK and bioavailability in dogs
Assay type: in vivo
Settings: male, beagle, dog, plasma; single dose, PO 6 mg/kg/day, M
Procedure: […] […] All groups had one male and one female animal. Plasma samples were collected at various timepoints, through to 24 h post-dose, and analyzed for ZB716. […] The stock solution of ZB716 (5.0 mg/mL) and ZB716-d6 (1 mg/mL) in ACN:DI Water = 1:1 was prepared and stored at −20 ± 5 °C. […] This method is applicable for the determination of ZB716 in Sprague Dawley rat plasma and beagle dog plasma, with a lower limit of quantification of 20.0 ng/mL, and an upper limit of quantification of 10,000 ng/mL. […]
quantity: Tmax

# molecule, result value
data = [
    ("C[C@]12CC[C@@H]3c4ccc(B(O)O)cc4C[C@@H](CCCCCCCCC[S+]([O-])CCCC(F)(F)C(F)(F)F)[C@H]3[C@@H]1CC[C@@H]2O (stereo partly shown) [ZB716, fulvestrant-3-boronic acid]", "30 min"),
]

====

Target: CYP2C8 (Homo sapiens)
Sequence (P10632 1-490): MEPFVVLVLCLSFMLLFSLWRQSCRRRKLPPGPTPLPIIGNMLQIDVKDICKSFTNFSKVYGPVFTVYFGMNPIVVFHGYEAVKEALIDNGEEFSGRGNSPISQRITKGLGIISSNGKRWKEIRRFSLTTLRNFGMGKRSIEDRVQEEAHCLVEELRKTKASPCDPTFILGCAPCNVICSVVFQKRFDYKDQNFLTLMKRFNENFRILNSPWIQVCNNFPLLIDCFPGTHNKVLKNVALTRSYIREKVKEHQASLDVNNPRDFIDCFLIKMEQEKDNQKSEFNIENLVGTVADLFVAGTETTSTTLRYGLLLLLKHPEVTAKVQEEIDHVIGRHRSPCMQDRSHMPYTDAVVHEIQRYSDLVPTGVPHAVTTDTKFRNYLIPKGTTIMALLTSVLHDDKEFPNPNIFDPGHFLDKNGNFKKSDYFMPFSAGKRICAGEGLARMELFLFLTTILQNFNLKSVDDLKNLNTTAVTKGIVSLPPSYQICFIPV
Assay: CYP inhibition in human liver microsomes, CYP2C8
Type: in vitro ADME
Details: HLM, marker substrate Amodiaquine
Experimental: . The inhibition of CYP2B6 and 3A4 (when midazolam was used as the substrate) by ZB716 was not observed. The inhibitory potential of ZB716 on human CYP enzyme activities appears relatively low. The final concentrations of ZB716 in the incubation system were 0, 0.05, 0.15, 0.5, 1.5, 5, and 15 µM (final organic solvent concentration ≤ 1%). […] . […] The concentrations of the isoform-specific metabolites derived from marker substrates were measured by UPLC–MS/MS. […]
pIC50: −log10 of the molar value.

# molecule, pIC50
records = [
    ("C[C@]12CC[C@@H]3c4ccc(B(O)O)cc4C[C@@H](CCCCCCCCC[S+]([O-])CCCC(F)(F)C(F)(F)F)[C@H]3[C@@H]1CC[C@@H]2O (stereo partly shown)", 5.20),
]

====

Experiment: Metabolic stability in dog hepatocytes
Assay type: in vitro ADME
Conditions: read-out: In Vitro Clint
Protocol: Hepatocytes of humans (#X008001), dogs (#M00205), rats (#M00005), and mice (#M005052) were purchased from BioIVT, NY, USA. Monkey hepatocytes were procured from RILD, Shanghai, China. The metabolic stability of ZB716 in human, monkey, dog, rat and mouse hepatocytes was investigated by incubating ZB716 with human, monkey, dog, rat, and mouse hepatocytes (0.5 × 10^6 cells/mL), or with incubation medium only. parent disappearance vs. incubation time curve. Scaled-up Clint = kV/N × Scaling Factor […]

# compound, hepatocyte CLint at 1 μM (µL/min/1e6 cells)
records = [
    ("C[C@]12CC[C@@H]3c4ccc(B(O)O)cc4C[C@@H](CCCCCCCCC[S+]([O-])CCCC(F)(F)C(F)(F)F)[C@H]3[C@@H]1CC[C@@H]2O (stereo partly shown) [ZB716, fulvestrant-3-boronic acid]", 51.9),
]

====

Assay: 7-day repeated-dose TK in dogs
Assay type: in vivo
Conditions: male, beagle, dog, plasma, po, 200 mg/kg/day, day 1, PO 200 mg/kg/day, M
quantity: AUC(0-t) (ng·h/mL)

# molecule, result value
data = [
    ("C[C@]12CC[C@@H]3c4ccc(B(O)O)cc4C[C@@H](CCCCCCCCC[S+]([O-])CCCC(F)(F)C(F)(F)F)[C@H]3[C@@H]1CC[C@@H]2O (stereo partly shown)", 52200),
]

====

Tested on: CYP3A4
Experiment: CYP induction (enzyme activity) in cryopreserved human hepatocytes, CYP3A4
Type: in vitro ADME
Conditions: human, plated cryopreserved human hepatocytes, donor three, 1.5 µM

# molecule, fold induction at 72 h, 1.5 µM
records = [
    ("C[C@]12CC[C@@H]3c4ccc(B(O)O)cc4C[C@@H](CCCCCCCCC[S+]([O-])CCCC(F)(F)C(F)(F)F)[C@H]3[C@@H]1CC[C@@H]2O (stereo partly shown)", 0.828),
]

====

// reported Papp B→A at 120 min, 5 μM per item
Assay: Bidirectional permeability across Caco-2 cell monolayers
Type: in vitro ADME
Settings: human; Caco-2, 5 μM
quantity: Papp B→A at 120 min, 5 μM (×10⁻⁶ cm/s)

# compound, quantity, result value
data = [
    ("C[C@H]1O[C@@H](O[C@H]2[C@@H](O)C[C@H](O[C@H]3[C@@H](O)C[C@H](O[C@H]4CC[C@@]5(C)[C@H](CC[C@@H]6[C@@H]5C[C@@H](O)[C@]5(C)[C@@H](C7=CC(=O)OC7)CC[C@]65O)C4)O[C@@H]3C)O[C@@H]2C)C[C@H](O)[C@@H]1O [Digoxin, digoxin, reference compound]", "Papp B→A at 120 min, 5 μM", 14.5),
    ("C[C@]12CC[C@@H]3c4ccc(B(O)O)cc4C[C@@H](CCCCCCCCC[S+]([O-])CCCC(F)(F)C(F)(F)F)[C@H]3[C@@H]1CC[C@@H]2O (stereo partly drawn)", "Papp B→A at 120 min, 5 μM", 0.82),
    ("Nc1cc(N2CCCCC2)nc(N)[n+]1[O-] [Minoxidil, minoxidil, reference compound]", "Papp B→A at 120 min, 5 μM", 7.44),
]

====

Experiment: Single-dose PK and bioavailability of ZB716 in rats
Assay type: in vivo
Conditions: both sexes, Sprague Dawley, rat, plasma; single oral administration, mostly, post-dose; read-out: Tmax
quantity: Tmax

# compound, result value
records = [
    ("C[C@]12CC[C@@H]3c4ccc(B(O)O)cc4C[C@@H](CCCCCCCCC[S+]([O-])CCCC(F)(F)C(F)(F)F)[C@H]3[C@@H]1CC[C@@H]2O (stereo partly shown)", "0.5 to 2 h"),
]

====

Assay: Single-dose PK and bioavailability in dogs
Type: in vivo
Conditions: female, beagle, dog, plasma; single dose, PO 100 mg/kg/day, F

# molecule, AUC(0-t) [ng·h/mL]
data = [
    ("C[C@]12CC[C@@H]3c4ccc(B(O)O)cc4C[C@@H](CCCCCCCCC[S+]([O-])CCCC(F)(F)C(F)(F)F)[C@H]3[C@@H]1CC[C@@H]2O (stereo partly shown)", 5840),
]
